tested on: foxtail, green (green foxtail, Setaria viridis); test: Test C pre-/postemergence: foxtail, green; type: in vivo; settings: Postemergence, 62 g ai/ha; scale 0 to 100 (0 no effect, 100 complete control)
PARAMETER MEASURED: Plant response rating, Foxtail, Green

| STRUCTURE NOTATION | RECORDED MEASUREMENT |
| --- | --- |
| COc1nn(-c2ccc(C(F)(F)F)cc2)nc1Cc1ccnc(C(F)(F)F)c1 | 85 |
| Cc1nn(-c2ccc(C(F)(F)F)c(F)c2)nc1Oc1ccnc(C(F)(F)F)c1 | 98 |
| COc1nn(-c2cccc(F)c2)nc1Cc1ccnc(C(F)(F)F)c1 | 95 |
| COc1nn(-c2ccc(C(F)(F)F)cc2)nc1Cc1ccnc(C(F)F)c1 | 85 |
